Target: Albumin (Bos taurus)
Assay: bovine serum albumin binders on microarray, profiling panel, artefact control for SMM control protein annotation, biochemical, small-molecule microarray, Alexa647 label, 635/667 nm fluorescence (AID 1118);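 further: score merges 667 nm emission intensity and signal-to-noise per printed compound spot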
Details: BSA-A647 binding, fluorescence 635 nm, higher = more signal
composite z-score values for the compounds below.

{"compound": "COc1cc(NN2C(C(O)c3cc(OC)c(OC)c(OC)c3)C=CC3C(=O)N(c4ccccc4)C(=O)C32)cc(OC)c1OC (centres undefined)", "composite z-score": 1.06}
{"compound": "COC(=O)C1=CC(CCCO)=CC(c2ccc(CN3CCCC3)cc2)N(Cc2cc3c(cc2Br)OCO3)C=C1C(=O)OC (centres undefined)", "composite z-score": 1.04}
{"compound": "COc1ccc([Si](C)(C)[C@@H]2[C@@H](CCn3cc([C@H](O)c4ccccc4)nn3)O[C@]3(C(=O)N(c4ccccc4)c4ccccc43)[C@H]2C)cc1", "composite z-score": -0.591}
{"compound": "COC(=O)[C@@]1(Cc2ccc(F)cc2)[C@H]2c3cc(C(=O)N(C)C)n(Cc4c(CO)[nH]cc(C)c4=O)c3C[C@H]2CN1C(=O)c1ccccc1", "composite z-score": 0.569}
{"compound": "CN(C)CCCC[C@@H]1NC(=O)[C@@H]2C[C@H](C(=O)O)[C@H](c3cccc(OCCO)c3)N2C1=O", "composite z-score": 0.0812}
{"compound": "CC(C)CNC(=O)[C@@]1(C)c2ccccc2C(=O)N(Cc2cc(C(F)(F)F)cc(C(F)(F)F)c2)[C@H]1c1ccc(CO)cc1", "composite z-score": 0.184}
{"compound": "COC(=O)[C@@]1(Cc2ccc(OC)cc2)[C@H]2c3cc(C(=O)N4CCCC4)n(Cc4ccc(OC(F)(F)F)cc4)c3C[C@H]2CN1C(=O)c1ccccc1", "composite z-score": 0.943}
{"compound": "CCOC(=O)C1=CCC(c2ccccc2)N(S(=O)(=O)c2ccc([N+](=O)[O-])cc2)C1 (centres undefined)", "composite z-score": 0.193}
{"compound": "C=CCC(OC(C)=O)[C@@H]1[C@@H](N(Cc2cccc3ccccc23)C(=O)c2ccc(-c3ccccc3)cc2)c2cc(OCCCO)ccc2N1C(=O)c1ccc(-c2ccccc2)cc1 (some centres undefined)", "composite z-score": -0.0811}
{"compound": "NC(=O)[C@H]1[C@@H]2C(=O)O[C@@H](c3ccccc3)[C@@H](c3ccccc3)N2[C@@H](c2ccc(O)cc2)[C@]12C(=O)Nc1ccc(C#CC3=CCCCC3)cc12", "composite z-score": 0.396}
{"compound": "CC(=O)n1cc(C(O)C2C=CC3C(=O)N(c4ccccc4)C(=O)C3N2Nc2ccc(C(C)C)cc2)c2ccccc21 (centres undefined)", "composite z-score": 1.02}
{"compound": "C=C(C(=O)CC[C@H](OC(=O)c1ccccc1-c1ccccc1C(=O)O)c1ccccc1OCCO)C(C)C", "composite z-score": 0.0198}
{"compound": "CC1CC/C=C\\[C@H]2OC34C=CCN(C(C)(C)C)C(=O)[C@H]3N(C(CO)C(C)C)C(=O)[C@@H]4C2C(=O)O1 (some centres undefined)", "composite z-score": -0.667}
{"compound": "C=C(CCCC)C(=O)CC[C@H](OC(C)=O)c1ccc(OCCO)cc1", "composite z-score": 0.551}
